measured_target: SHP2-C SH2
measurement_description: SH2 binding enrichment of the phosphorylated peptide, bacterial display (enrichment ratio); higher = better substrate or ligand; peptides without Tyr show the background
quantity_name: SH2 binding enrichment

Look up SH2 binding enrichment: RLLVVYPWTKR [HBB_Y36_Q40K]
0.812

(a) TTKGAYSLSVR [YES1_Y194_I198V]
(b) CTTIHYMFMCN [TP53_Y234_N235M_YF]
(c) RHLREYQDLLN [DES_Y388]
(d) SHNKYYMLVAR [MFSD8_Y134]
Order the records by SH2 binding enrichment, with each subsequent value no larger than the one before. Enter labels, ranked according to the request.
d, b, c, a

(1) TFEYRYLEDQD [CNOT3_Y746_R750Q]
(2) GQLIVYAPPEW [CNTN6_Y315_F314V]
(3) LLVVLCKFRCF [PSEN1_Y154_Y154C_YF]
Order field: SH2 binding enrichment | Direction: descending (largest first) Sort the labels as requested; that list is your answer.
3, 2, 1
(3: 1.84, 2: 0.767, 1: 0.478)

###

measured_target: Fyn (UniProt P06241)
Sequence (P06241 whole entry, looked up): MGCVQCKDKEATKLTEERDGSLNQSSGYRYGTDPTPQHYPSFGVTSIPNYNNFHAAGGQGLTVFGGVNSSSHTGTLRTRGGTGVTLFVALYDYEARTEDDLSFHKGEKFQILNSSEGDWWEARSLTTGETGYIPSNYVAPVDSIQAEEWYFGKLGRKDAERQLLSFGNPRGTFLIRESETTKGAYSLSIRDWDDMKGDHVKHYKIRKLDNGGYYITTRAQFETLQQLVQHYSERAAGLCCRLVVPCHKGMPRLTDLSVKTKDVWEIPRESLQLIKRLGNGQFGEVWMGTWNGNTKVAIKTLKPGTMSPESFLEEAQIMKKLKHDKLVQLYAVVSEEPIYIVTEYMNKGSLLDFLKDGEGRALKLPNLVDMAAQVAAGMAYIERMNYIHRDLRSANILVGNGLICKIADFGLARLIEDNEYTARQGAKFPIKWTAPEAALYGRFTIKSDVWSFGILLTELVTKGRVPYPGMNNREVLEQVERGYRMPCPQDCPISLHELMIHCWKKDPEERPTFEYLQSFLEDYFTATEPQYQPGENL
measurement_description: phosphorylation enrichment, bacterial display (enrichment ratio); higher = better substrate or ligand; peptides without Tyr show the background
Listed sequences paired with reported phosphorylation enrichment
Response field accepts a number only; no unit should be typed.

These solved cases illustrate the format of a correct answer.
Which phosphorylation enrichment is reported with Fyn (UniProt P06241) for this entry: IHHIDYFKETT [FGFR1_Y653_K656E_YF] ?
0.555

Lab note: need phosphorylation enrichment with Fyn (UniProt P06241) for entry TVSTRYTQPQP [SARG_Y259] , please look it up.
0.442

More entries:
Hi! What's the reported phosphorylation enrichment for TLKDVCDDGKY [RPS6KA3_Y483_Y483C] on Fyn (UniProt P06241)?
0.434

Query phosphorylation enrichment on Fyn (UniProt P06241) for LKDEDYLKDIV [HAUS3_Y582]
0.791

Write down the reported phosphorylation enrichment of GNHISYYQSDG [CACNA1C_Y1757_V1755I] , test system: Fyn (UniProt P06241).
0.514

###

measured_target: Grb2 SH2 (UniProt P62993)
measurement_description: SH2 binding enrichment of the phosphorylated peptide, bacterial display (enrichment ratio); higher = better substrate or ligand; peptides without Tyr show the background
quantity_name: SH2 binding enrichment

Take a look at these entries with their results.
Need SH2 binding enrichment of PAQAAYQKVVA [HBB_Y131_V127A] , thanks.
0.9

I am curious: what SH2 binding enrichment value has been reported for RFLERYIYNRQ [HLA-DPB1_Y57_E62Q] ?
0.919

Which SH2 binding enrichment is listed for ENAGFYFQVSA ?
0.629

Reported SH2 binding enrichment, sequence CTTIHYMFMCN [TP53_Y234_N235M_YF] : ____
1.38

# input sequence: RHYVYYYSYLL [PTEN_Y177_R173H] ; wanted: its SH2 binding enrichment
1.03

(A) HLMLQYDAVVN [SLC25A32_Y152_R147H]
(B) FLNSSYINIST [IL23R_Y178_T175N_YF]
Between these two entries, A and B , state which has the higher SH2 binding enrichment. Answer = label.
B
(B: 25, A: 1.01)

(P) ERLLDYTRTVQ [INPP5E_Y439]
(Q) RELSWYRGQRP [HESX1_Y106_R109Q]
I'm curious whether P or Q has the smaller SH2 binding enrichment number. Which is it? # respond with the chosen item's label
P
(P: 0.777, Q: 1.78)

Numbers sourced from the supplement of paper PMC10065799.
